Test: in vitro
Type: in vitro ADME
Details: rat liver microsomes, 1 μM; read-out: intrinsic clearance (CLint)
METRIC: microsomal CLint

Q. Fill in: microsomal CLint of CC(C)(C)C(=O)O[C@@H]1[C@@H]2[C@H]3C[C@H](C[C@@H]1N3Cc1ccccn1)CN2C(=O)CC(F)(F)F (relative stereo) is ___
A. > 346 µL/min/mg

----------
Test: in vivo
Set-up: species or system mice
Details: mouse, in vivo, po, 50 mg/kg, mice, oral 50 mg/kg, 5 min to 8 h; read-out: tissue-to-plasma concentration ratio, spleen
METRIC: Kp
Simply state the number, no unit and no words.

Q. Fill in: Kp of CC(C)(C)C(=O)O[C@@H]1[C@@H]2[C@H]3C[C@H](C[C@@H]1N3Cc1ccccn1)CN2C(=O)CC(F)(F)F (relative stereo) is ___
A. 77.5
